Measured pKi on M. tuberculosis alanine racemase (Mycobacterium tuberculosis, UniProt P9WQA9) follows.
Sequence (P9WQA9 whole entry): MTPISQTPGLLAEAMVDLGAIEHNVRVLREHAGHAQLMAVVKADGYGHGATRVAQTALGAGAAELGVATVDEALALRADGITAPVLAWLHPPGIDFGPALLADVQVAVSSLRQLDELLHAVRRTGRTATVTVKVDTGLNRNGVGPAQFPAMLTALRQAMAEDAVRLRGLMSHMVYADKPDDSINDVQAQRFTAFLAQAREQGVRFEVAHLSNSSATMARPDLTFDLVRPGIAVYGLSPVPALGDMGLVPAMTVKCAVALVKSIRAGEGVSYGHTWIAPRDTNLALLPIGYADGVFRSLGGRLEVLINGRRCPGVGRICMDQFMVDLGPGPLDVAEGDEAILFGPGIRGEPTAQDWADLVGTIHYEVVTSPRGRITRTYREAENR
pKi: −log10 of the molar value.
quantity-name: pKi

# compound, study-system, quantity-name, data-value
data = [
    ("CS(=O)(=O)c1ncc(Cl)c(C(=O)NCc2ccccc2)n1", "M. tuberculosis alanine racemase (Mycobacterium tuberculosis, UniProt P9WQA9)", "pKi", 3.20),
    ("CCOc1ccc(CCNC(=O)Cn2sc3nc(C)cc(C)c3c2=O)cc1", "M. tuberculosis alanine racemase (Mycobacterium tuberculosis, UniProt P9WQA9)", "pKi", 3.03),
    ("COc1ccc(NC(=O)c2nc(S(C)(=O)=O)ncc2Cl)cc1Cl", "M. tuberculosis alanine racemase (Mycobacterium tuberculosis, UniProt P9WQA9)", "pKi", 3.12),
    ("S=C(Cc1ccccc1)N1CCCCC1", "M. tuberculosis alanine racemase (Mycobacterium tuberculosis, UniProt P9WQA9)", "pKi", 4.10),
    ("O=C1Nc2ccccc2C(=O)C1(O)O [L2-16, 3,3-dihydroxy-1H-quinoline-2,4-dione]", "M. tuberculosis alanine racemase (Mycobacterium tuberculosis, UniProt P9WQA9)", "pKi", 4.70),
    ("COC(=O)c1cccc(C(=O)Oc2ccc(OC(=O)c3cccc(C(=O)OC)n3)c(Cl)c2)n1", "M. tuberculosis alanine racemase (Mycobacterium tuberculosis, UniProt P9WQA9)", "pKi", 3.17),
    ("CCOC(=O)CCSc1ccccn1 [L2-04, ethyl 3-(pyridin-2-ylthio)propanoate]", "M. tuberculosis alanine racemase (Mycobacterium tuberculosis, UniProt P9WQA9)", "pKi", 4.42),
]

---

target: M. tuberculosis alanine racemase (Mycobacterium tuberculosis, UniProt P9WQA9); format: binding; conditions: 4 µM alanine racemase with 1 mM inhibitor
quantity-name: Nature of inhibitor-enzyme interaction by ESMS

# molecule, data-value
rows = [
    ("COc1ccc(NC(=O)c2nc(S(C)(=O)=O)ncc2Cl)cc1Cl", "irreversible"),
    ("S=C(Cc1ccccc1)N1CCCCC1", "irreversible"),
    ("CCOc1ccc(CCNC(=O)Cn2sc3nc(C)cc(C)c3c2=O)cc1", "irreversible"),
    ("CS(=O)(=O)c1ncc(Cl)c(C(=O)NCc2ccccc2)n1", "irreversible"),
    ("O=C1Nc2ccccc2C(=O)C1(O)O [L2-16, 3,3-dihydroxy-1H-quinoline-2,4-dione]", "reversible"),
    ("CCOC(=O)CCSc1ccccn1 [L2-04, ethyl 3-(pyridin-2-ylthio)propanoate]", "reversible"),
]

---

biological target: M. tuberculosis alanine racemase (Mycobacterium tuberculosis, UniProt P9WQA9)
IC50 strictly under 6 µM means fulfilled; at 6 µM or over means not fulfilled.

# molecule, study-system, label
data = [
    ("Cc1ccc(CC(=S)N2CCOCC2)cc1 [L2-07]", "M. tuberculosis alanine racemase (Mycobacterium tuberculosis, UniProt P9WQA9)", "not fulfilled"),
    ("COC(=O)c1cccc(C(=O)Oc2ccc(OC(=O)c3cccc(C(=O)OC)n3)c(Cl)c2)n1 [L2-10]", "M. tuberculosis alanine racemase (Mycobacterium tuberculosis, UniProt P9WQA9)", "fulfilled"),
    ("O=C(COc1ccccc1O)NO [L2-03, N-hydroxy-2-(2-hydroxyphenoxy)acetamide]", "M. tuberculosis alanine racemase (Mycobacterium tuberculosis, UniProt P9WQA9)", "not fulfilled"),
    ("CS(=O)(=O)c1ncc(Cl)c(C(=O)NCc2ccccc2)n1 [L2-05]", "M. tuberculosis alanine racemase (Mycobacterium tuberculosis, UniProt P9WQA9)", "not fulfilled"),
    ("O=C(O)CSC(=S)Nc1cccnc1 [L2-11]", "M. tuberculosis alanine racemase (Mycobacterium tuberculosis, UniProt P9WQA9)", "not fulfilled"),
]
